STUDY CONDITIONS: [M-H]-; instrument: DT; stepped-field
METRIC NAME: collision cross section (N2) (Å²)

CCCCCCCC/C=C\CCCCCCCC(=O)O[C@H](COC(=O)CCCCCCCCCCCCCCCCC)COP(=O)(O)OCCN :: 273.62
CCCCC/C=C\C/C=C\C/C=C\C/C=C\CCCC(=O)O[C@H](COC(=O)CCCCCCCCC/C=C\CCCCCCCC)COP(=O)(O)OC[C@H](N)C(=O)O :: 290.27
CCCCC/C=C\C/C=C\CCCCCCCCCCCC(=O)O[C@H](COC(=O)CCCCCCC/C=C\CCCCCC)COP(=O)(O)OC[C@H](N)C(=O)O :: 286.53
CCCCC/C=C\C/C=C\C/C=C\CCCCC(=O)OC[C@H](COP(=O)(O)OC[C@H](N)C(=O)O)OC(=O)CCCCCCCCC/C=C\CCCCCCCCCC :: 291.3
CCCCCCCC/C=C\CCCCCCCC(=O)OC[C@H](COP(=O)(O)OC[C@H](N)C(=O)O)OC(=O)CCCCCCC/C=C\CCCCCCCC :: 281.82
CC/C=C\C/C=C\C/C=C\C/C=C\CCCCC(=O)O[C@H](COC(=O)CCCCCCCCCCCCCCCCCCC)COP(=O)(O)OCCN :: 276.04
CCCCC/C=C\C/C=C\C/C=C\CCCCC(=O)OC[C@H](COP(=O)(O)OCCN)OC(=O)CCCCCCCCCCC/C=C\C/C=C\CCCCC :: 280.89

###

STUDY CONDITIONS: [M+Na-2H]-; instrument: DT; single field, calibrated with Agilent tune mix (Agilent)
METRIC NAME: collision cross section (N2) (Å²)

N[C@@H](Cc1ccc(OP(=O)(O)O)cc1)C(=O)O :: 149.33

A. O=C(O)Cc1cccc(O)c1 [3-Hydroxyphenylacetic acid]
B. C[C@H](CCC(=O)NCC(=O)O)[C@H]1CC[C@H]2[C@@H]3CC[C@@H]4C[C@H](O)CC[C@]4(C)[C@H]3CC[C@]12C
Between the two listed entries A and B , which has its collision cross section (N2) at the higher number? Bench note: the answer is the label of the chosen record.
B
(B: 205.49 Å², A: 135.74 Å²)

###

STUDY CONDITIONS: [M+H]+; instrument: DT; single field, calibrated with Agilent tune mix (Agilent)
METRIC NAME: collision cross section (N2) (Å²)

Below, each entry is followed by its recorded collision cross section (N2) result.
C[C@]12CCC(=O)C=C1CC[C@@H]1[C@@H]2CC[C@]2(C)C(=O)CC[C@@H]12 :: 173.3
CC(C)(COP(=O)(O)OP(=O)(O)OC[C@H]1O[C@@H](n2cnc3c(N)ncnc32)[C@H](O)[C@@H]1OP(=O)(O)O)[C@@H](O)C(=O)NCCC(=O)NCCS :: 240.4
O=c1c(O)c(-c2ccc(O)cc2)oc2cc(O)cc(O)c12 :: 162.9

1. NC(=O)c1ccc[n+]([C@@H]2O[C@H](COP(=O)(O)OP(=O)(O)OC[C@H]3O[C@@H](n4cnc5c(N)ncnc54)[C@H](OP(=O)(O)O)[C@@H]3O)[C@@H](O)[C@H]2O)c1 [Nicotinamide adenine dinucleotide phosphate (NADP)]
2. CN1CC(=O)N=C1N
Hey, which is lower on measured collision cross section (N2), 1 or 2 ? Which one? Tell me its label.
2
